These entries and their values trace back to paper PMC9881146.

STUDY_SYSTEM: T1, Cdc13OB23 (Candida glabrata, UniProt Q6FT40 260-593)
T1 sequence: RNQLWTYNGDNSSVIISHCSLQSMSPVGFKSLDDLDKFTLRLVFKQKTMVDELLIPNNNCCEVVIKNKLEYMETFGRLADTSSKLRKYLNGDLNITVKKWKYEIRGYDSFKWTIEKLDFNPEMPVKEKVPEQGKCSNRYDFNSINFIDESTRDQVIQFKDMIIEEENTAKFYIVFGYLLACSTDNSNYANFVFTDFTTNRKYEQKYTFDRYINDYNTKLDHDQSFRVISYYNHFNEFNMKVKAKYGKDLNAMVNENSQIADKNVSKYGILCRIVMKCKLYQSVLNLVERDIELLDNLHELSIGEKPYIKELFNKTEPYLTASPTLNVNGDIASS
TEST_SUMMARY: fluorescence polarization
pKd: −log10 of the molar value.
METRIC_NAME: pKd

# BINDER, METRIC_NAME, OBSERVED_VALUE
measured = [
    ("TGTGGGGTCTGGGTGCTGTGGGGTCTGGGTGCTGTGGGGTCTGGGTGC (ssDNA) [6FAM-CgTelo]", "pKd", 7.55),
]
